testedTarget: Myosin light chain kinase, smooth muscle (Homo sapiens, UniProt Q15746); note: in the data inactive means no Kd found up to 30 µM
Sequence (Q15746 whole entry): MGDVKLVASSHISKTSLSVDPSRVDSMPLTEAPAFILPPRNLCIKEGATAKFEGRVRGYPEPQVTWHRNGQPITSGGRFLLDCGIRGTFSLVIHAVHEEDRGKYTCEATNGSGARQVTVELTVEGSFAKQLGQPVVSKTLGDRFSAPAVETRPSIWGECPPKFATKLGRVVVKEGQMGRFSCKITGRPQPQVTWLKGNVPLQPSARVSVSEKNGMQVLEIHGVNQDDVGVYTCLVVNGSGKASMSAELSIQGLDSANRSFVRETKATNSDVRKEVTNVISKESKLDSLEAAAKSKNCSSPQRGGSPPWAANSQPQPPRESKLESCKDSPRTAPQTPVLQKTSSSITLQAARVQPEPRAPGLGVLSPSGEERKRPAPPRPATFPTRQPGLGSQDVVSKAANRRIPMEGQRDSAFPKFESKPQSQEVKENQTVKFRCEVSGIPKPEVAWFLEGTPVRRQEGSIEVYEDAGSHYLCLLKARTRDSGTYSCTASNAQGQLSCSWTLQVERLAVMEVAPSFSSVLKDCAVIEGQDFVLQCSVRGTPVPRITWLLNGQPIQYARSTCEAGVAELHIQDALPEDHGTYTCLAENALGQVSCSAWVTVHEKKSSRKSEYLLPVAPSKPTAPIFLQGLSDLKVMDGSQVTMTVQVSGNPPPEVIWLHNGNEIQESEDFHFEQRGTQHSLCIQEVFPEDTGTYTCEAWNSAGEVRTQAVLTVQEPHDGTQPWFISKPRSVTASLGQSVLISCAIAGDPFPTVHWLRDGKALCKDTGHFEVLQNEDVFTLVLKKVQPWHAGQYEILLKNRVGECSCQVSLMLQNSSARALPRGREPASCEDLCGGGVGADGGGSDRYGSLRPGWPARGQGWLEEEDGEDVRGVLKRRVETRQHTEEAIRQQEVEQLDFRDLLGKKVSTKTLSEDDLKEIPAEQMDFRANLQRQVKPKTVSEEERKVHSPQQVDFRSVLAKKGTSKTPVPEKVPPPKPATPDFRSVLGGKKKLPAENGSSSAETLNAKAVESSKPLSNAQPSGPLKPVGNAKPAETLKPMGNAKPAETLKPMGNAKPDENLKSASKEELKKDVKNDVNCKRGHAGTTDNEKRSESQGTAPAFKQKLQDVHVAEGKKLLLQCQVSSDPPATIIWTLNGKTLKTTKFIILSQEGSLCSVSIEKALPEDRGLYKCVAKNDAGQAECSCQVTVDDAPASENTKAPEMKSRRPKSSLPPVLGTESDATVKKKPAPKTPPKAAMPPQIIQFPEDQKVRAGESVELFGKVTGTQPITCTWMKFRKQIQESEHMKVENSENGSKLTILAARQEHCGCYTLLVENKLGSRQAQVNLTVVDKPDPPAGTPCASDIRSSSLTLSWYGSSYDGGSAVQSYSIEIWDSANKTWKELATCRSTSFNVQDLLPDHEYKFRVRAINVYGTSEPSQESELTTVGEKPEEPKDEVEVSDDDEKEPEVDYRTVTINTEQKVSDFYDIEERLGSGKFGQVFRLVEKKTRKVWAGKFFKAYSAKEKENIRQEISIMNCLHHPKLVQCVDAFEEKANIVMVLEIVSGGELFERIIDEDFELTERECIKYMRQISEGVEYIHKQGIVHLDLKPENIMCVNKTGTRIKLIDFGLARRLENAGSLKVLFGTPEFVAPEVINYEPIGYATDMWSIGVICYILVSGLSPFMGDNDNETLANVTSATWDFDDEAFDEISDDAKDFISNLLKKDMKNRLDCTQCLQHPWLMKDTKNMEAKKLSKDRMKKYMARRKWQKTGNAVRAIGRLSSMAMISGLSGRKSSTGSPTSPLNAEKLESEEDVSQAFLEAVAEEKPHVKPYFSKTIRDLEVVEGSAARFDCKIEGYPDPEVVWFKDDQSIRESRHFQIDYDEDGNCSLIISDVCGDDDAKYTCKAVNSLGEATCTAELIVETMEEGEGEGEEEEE
The source made the active and inactive calls.
Use one of these outcomes when replying: active, inactive

Task: Given `CNC(=O)c1cc(Oc2ccc(NC(=O)Nc3cc(C(C)(C)C)nn3-c3ccc4ncccc4c3)c(F)c2)ccn1` , state the outcome it received in this test.
Result: active

---

testedTarget: High affinity nerve growth factor receptor (Homo sapiens, UniProt P04629); note: in the data inactive means no Kd found up to 30 µM
Sequence (P04629 whole entry): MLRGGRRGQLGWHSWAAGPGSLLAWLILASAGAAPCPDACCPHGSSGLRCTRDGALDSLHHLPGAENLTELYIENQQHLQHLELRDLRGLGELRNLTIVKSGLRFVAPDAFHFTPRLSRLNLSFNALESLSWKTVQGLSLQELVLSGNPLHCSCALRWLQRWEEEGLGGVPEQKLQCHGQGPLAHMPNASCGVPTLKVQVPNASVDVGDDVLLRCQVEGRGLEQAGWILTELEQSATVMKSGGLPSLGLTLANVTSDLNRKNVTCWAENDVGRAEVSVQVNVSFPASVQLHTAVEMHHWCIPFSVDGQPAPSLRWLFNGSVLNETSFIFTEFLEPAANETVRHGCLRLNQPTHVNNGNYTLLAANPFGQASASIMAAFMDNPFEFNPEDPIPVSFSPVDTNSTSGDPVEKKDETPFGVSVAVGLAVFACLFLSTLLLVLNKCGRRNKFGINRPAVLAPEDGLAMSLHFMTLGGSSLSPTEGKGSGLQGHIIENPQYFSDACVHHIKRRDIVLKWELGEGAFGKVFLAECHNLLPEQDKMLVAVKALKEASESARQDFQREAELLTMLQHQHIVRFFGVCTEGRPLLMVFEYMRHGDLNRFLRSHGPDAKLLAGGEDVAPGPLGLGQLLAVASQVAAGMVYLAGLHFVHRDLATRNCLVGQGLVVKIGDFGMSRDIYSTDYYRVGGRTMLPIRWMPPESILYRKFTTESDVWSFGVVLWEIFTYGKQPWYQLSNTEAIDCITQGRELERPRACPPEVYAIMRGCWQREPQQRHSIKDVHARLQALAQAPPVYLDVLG
The source made the active and inactive calls.
Mark one answer only. Choices: T = active, F = inactive

// below: answered compounds
1. CCn1cc(-c2ccnc3[nH]c(-c4cccc(CN(C)C)c4)cc23)c(-c2ccc(NC(=O)N(C)C)cc2)n1	T
2. O=C(Nc1nc2cccc(-c3ccc(CN4CCS(=O)(=O)CC4)cc3)n2n1)C1CC1	F
3. Cc1cc(C(=O)NOCCO)c(Nc2ccc(I)cc2F)n(C)c1=O	F

Task: What is the recorded call for this compound in the test? `O=C(Nc1cc(C(F)(F)F)cc(C(F)(F)F)c1)c1cc(Cl)ccc1O`
Result: F

Task: What is the recorded call for this compound in the test? `CCCCCCCCCCCCCCCCCCOP(=O)([O-])OC1CC[N+](C)(C)CC1`
Result: F

Task: Check the results log: what was the call for `COc1ncc(-c2ccc3nccc(-c4ccnnc4)c3c2)cc1NS(=O)(=O)c1ccc(F)cc1F` ?
Result: F

Task: # fetch the recorded call for `O=C(Nc1c[nH]nc1-c1nc2cc(CN3CCOCC3)ccc2[nH]1)NC1CC1` here
Result: F

Task: State the result this test recorded for `CC(C)c1cc(CNc2nc(Nc3cc(C4CC4)[nH]n3)cc(N3CCN(C)CC3)n2)on1` .
Result: T

---

Calls of active or inactive are those of the source.
List of Kd tested on UniProt:Q709F0.
Sequence (Q709F0 whole entry): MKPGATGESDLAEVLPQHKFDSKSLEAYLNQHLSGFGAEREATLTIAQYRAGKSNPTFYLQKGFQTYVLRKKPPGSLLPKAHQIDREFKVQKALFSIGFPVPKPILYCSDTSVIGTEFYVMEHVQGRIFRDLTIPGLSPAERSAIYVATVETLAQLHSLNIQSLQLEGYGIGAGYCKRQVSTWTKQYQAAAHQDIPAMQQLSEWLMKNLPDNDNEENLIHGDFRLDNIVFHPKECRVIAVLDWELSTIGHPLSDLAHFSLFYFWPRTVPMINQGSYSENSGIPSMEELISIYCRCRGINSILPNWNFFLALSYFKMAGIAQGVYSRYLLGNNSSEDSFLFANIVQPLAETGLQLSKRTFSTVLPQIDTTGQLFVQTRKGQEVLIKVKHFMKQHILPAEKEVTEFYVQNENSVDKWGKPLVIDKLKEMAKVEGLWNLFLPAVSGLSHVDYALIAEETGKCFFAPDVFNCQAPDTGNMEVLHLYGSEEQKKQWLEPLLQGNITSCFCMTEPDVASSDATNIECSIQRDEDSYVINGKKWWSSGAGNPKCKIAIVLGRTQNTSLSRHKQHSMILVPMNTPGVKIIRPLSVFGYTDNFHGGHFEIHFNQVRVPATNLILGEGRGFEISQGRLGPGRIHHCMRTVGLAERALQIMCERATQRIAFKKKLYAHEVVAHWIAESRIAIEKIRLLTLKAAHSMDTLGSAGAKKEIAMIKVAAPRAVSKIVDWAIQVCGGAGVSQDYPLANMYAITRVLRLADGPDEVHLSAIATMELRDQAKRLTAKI

Take a look at these entries with their results.
1) COc1cc2c(Nc3ccc(Cl)c(Cl)c3F)ncnc2cc1OC[C@@H]1C[C@@H]2CN(C)C[C@@H]2C1	> 30 µM (inactive)
2) CNC(=O)c1ccccc1Sc1ccc2c(/C=C/c3ccccn3)n[nH]c2c1	> 30 µM (inactive)
3) CN1CCN(CCOc2cc(OC3CCOCC3)c3c(Nc4c(Cl)ccc5c4OCO5)ncnc3c2)CC1	> 30 µM (inactive)
4) O=C(NOCCO)c1cc(CN2OCCCC2=O)c(F)c(F)c1Nc1ccc(I)cc1F	> 30 µM (inactive)
5) O=c1[nH]ccc2cc(OC3CCNCC3)ccc12 [SAR-407899 FREE BASE]	> 30 µM (inactive)

Task: Provide value of Kd for this record tested with UniProt:Q709F0: `Cn1cc(-c2cnn3c(N)c(Br)c([C@@H]4CCCNC4)nc23)cn1`
Result: > 30 µM (inactive)

Task: Which Kd is reported with UniProt:Q709F0 for this entry: `CCOc1cc2ncc(C#N)c(Nc3ccc(F)c(Cl)c3)c2cc1NC(=O)/C=C/CN(C)C` ?
Result: > 30 µM (inactive)

Task: So what Kd did `CO[C@H]1C[C@@H]2CC[C@@H](C)[C@@](O)(O2)C(=O)C(=O)N2CCCC[C@H]2C(=O)O[C@H]([C@H](C)C[C@@H]2CC[C@@H](OC(=O)C(C)(CO)CO)[C@H](OC)C2)CC(=O)[C@H](C)/C=C(\C)[C@@H](O)[C@@H](OC)C(=O)[C@H](C)C[C@H](C)/C=C/C=C/C=C/1C` get with UniProt:Q709F0?
Result: > 30 µM (inactive)

Task: Record `Cc1cc(C(=O)NOCCO)c(Nc2ccc(I)cc2F)n(C)c1=O` : what is its Kd with UniProt:Q709F0?
Result: > 30 µM (inactive)

Task: For the record `C[C@@H](Oc1cc(-n2cnc3ccc(CN4CCN(C)CC4)cc32)sc1C(N)=O)c1ccccc1C(F)(F)F` , what value of Kd is listed for UniProt:Q709F0?
Result: > 30 µM (inactive)

Task: // fetch UniProt:Q709F0 Kd for `Cc1csc(-c2nnc(Nc3ccc(Oc4ncccc4-c4ccnc(N)n4)cc3)c3ccccc23)c1`
Result: > 30 µM (inactive)

Task: Give recorded Kd with UniProt:Q709F0 for the following compound: `COc1cc(Nc2ncc3c(n2)-c2ccc(Cl)cc2C(c2c(F)cccc2OC)=NC3)ccc1C(=O)O`
Result: > 30 µM (inactive)

Task: Lab note: need Kd with UniProt:Q709F0 for entry `NC(=O)c1c(OCc2c(F)cc(Br)cc2F)nsc1NC(=O)NCCCCN1CCCC1` , please look it up.
Result: > 30 µM (inactive)

Task: API: value(readout= Kd, system= UniProt:Q709F0, query= `N#CC1(c2ccc(NC(=O)c3cccnc3NCc3ccncc3)cc2)CCCC1` )
Result: > 30 µM (inactive)

---

Active and inactive are the calls of the source.
// endpoint Kd / system Tyrosine-protein kinase BTK (Homo sapiens); note: in the data inactive means no Kd found up to 30 µM

Use the examples below as a reference point.
1. CCNC(=O)C#Cc1ccc2c(c1)NC(=O)/C2=C(\Nc1ccc(CN(C)C)cc1)c1ccccc1	0.588 µM (active)
2. CO[C@H]1C[C@@H]2CC[C@@H](C)[C@@](O)(O2)C(=O)C(=O)N2CCCC[C@H]2C(=O)O[C@H]([C@H](C)C[C@@H]2CC[C@@H](OP(C)(C)=O)[C@H](OC)C2)CC(=O)[C@H](C)/C=C(\C)[C@@H](O)[C@@H](OC)C(=O)[C@H](C)C[C@H](C)/C=C/C=C/C=C/1C [RIDAFOROLIMUS]	> 30 µM (inactive)
3. Cc1nc2cc(-n3ncc(C(=O)c4cc5ccccc5[nH]4)c3N)ccc2[nH]1 [FGFR INHIBITOR DEBIO 1347]	> 30 µM (inactive)

Task: Give the reported Kd for COc1c(OCCCN2CCOCC2)ccc2c1N=C(NC(=O)c1cnc(N)nc1)N1CCN=C21 [COPANLISIB] (system: Tyrosine-protein kinase BTK (Homo sapiens)). Note: in the data inactive means no Kd found up to 30 µM.
Sequence (Q06187 whole entry): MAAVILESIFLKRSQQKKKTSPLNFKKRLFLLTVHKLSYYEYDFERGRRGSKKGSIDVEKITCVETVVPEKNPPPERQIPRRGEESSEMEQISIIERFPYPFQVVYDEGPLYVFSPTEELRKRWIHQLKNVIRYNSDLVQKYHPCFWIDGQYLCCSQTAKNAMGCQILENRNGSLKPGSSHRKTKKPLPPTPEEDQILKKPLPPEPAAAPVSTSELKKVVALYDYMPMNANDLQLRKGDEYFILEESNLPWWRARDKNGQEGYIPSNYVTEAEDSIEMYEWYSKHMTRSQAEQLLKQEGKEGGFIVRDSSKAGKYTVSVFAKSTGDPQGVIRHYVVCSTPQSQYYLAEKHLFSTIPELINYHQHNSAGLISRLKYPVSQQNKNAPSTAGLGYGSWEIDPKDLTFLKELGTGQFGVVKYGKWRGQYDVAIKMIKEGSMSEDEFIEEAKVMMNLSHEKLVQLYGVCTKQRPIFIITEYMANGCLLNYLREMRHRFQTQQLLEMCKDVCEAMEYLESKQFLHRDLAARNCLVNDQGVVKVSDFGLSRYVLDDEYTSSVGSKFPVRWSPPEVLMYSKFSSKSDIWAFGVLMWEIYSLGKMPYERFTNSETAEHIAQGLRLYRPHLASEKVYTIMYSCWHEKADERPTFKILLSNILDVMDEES
Result: > 30 µM (inactive)

Task: Kindly state the measured Kd obtained for CO[C@H]1C[C@@H]2CC[C@@H](C)[C@@](O)(O2)C(=O)C(=O)N2CCCC[C@H]2C(=O)O[C@H]([C@H](C)C[C@@H]2CC[C@@H](O)[C@H](OC)C2)CC(=O)[C@H](C)/C=C(\C)[C@@H](O)[C@@H](OC)C(=O)[C@H](C)C[C@H](C)/C=C/C=C/C=C/1C [SIROLIMUS] with Tyrosine-protein kinase BTK (Homo sapiens).
Result: > 30 µM (inactive)

Task: Short answer please: Kd, Tyrosine-protein kinase BTK (Homo sapiens), entry CN1C/C=C/CCOc2cccc(c2)-c2ccnc(n2)Nc2cccc(c2)C1 [ZOTIRACICLIB]
Result: > 30 µM (inactive)

Task: Find the measured Kd: item Cn1ncc(Cl)c1-c1cc(C(=O)N[C@H](CN)Cc2ccc(F)c(F)c2)oc1Cl [UPROSERTIB] , target or system Tyrosine-protein kinase BTK (Homo sapiens). Note: in the data inactive means no Kd found up to 30 µM.
Result: > 30 µM (inactive)

Task: Record CN(C[C@@H]1COCCO1)S(=O)(=O)Nc1ccc2ccc3ncc(-c4cnn(C)c4)cc3c(=O)c2c1 [MK-2461] : what is its Kd with Tyrosine-protein kinase BTK (Homo sapiens)?
Result: > 30 µM (inactive)

---

Entries with reported Kd on DNA topoisomerase 2-beta (Homo sapiens, UniProt Q02880)
Active and inactive are the calls of the source.

Examples with answers:
1) Cn1ncc(Cl)c1-c1cc(C(=O)N[C@H](CN)Cc2ccc(F)c(F)c2)oc1Cl [UPROSERTIB]	> 30 µM (inactive)
2) O=c1[nH]ccc2cc(OC3CCNCC3)ccc12 [SAR-407899 FREE BASE]	> 30 µM (inactive)
3) C[C@@H](Oc1cc(-n2cnc3ccc(CN4CCN(C)CC4)cc32)sc1C(N)=O)c1ccccc1C(F)(F)F [GSK-461364]	> 30 µM (inactive)
4) CNC(=O)c1ccccc1Sc1ccc2c(/C=C/c3ccccn3)n[nH]c2c1 [AXITINIB]	> 30 µM (inactive)

Task: Provide value of Kd for this record tested with DNA topoisomerase 2-beta (Homo sapiens, UniProt Q02880): COCC(=O)NC/C=C/c1ccc2ncnc(Nc3ccc(Oc4ccc(C)nc4)c(C)c3)c2c1 [CP-724714]
Result: > 30 µM (inactive)

---

testedTarget: UniProt:P29597
Where a name gives a salt, the structure may show the parent alone. Activity calls are given as the source filed them.
Choose the fitting class; nothing outside active, inactive is accepted.

1) Cc1csc(-c2nnc(Nc3ccc(Oc4ncccc4-c4ccnc(N)n4)cc3)c3ccccc23)c1	inactive
2) C[C@@H](NC(=O)c1ncnc(N)c1Cl)c1ncc(C(=O)Nc2cc(C(F)(F)F)c(Cl)cn2)s1	inactive
3) CO[C@H]1C[C@@H]2CC[C@@H](C)[C@@](O)(O2)C(=O)C(=O)N2CCCC[C@H]2C(=O)O[C@H]([C@H](C)C[C@@H]2CC[C@@H](OC(=O)C(C)(CO)CO)[C@H](OC)C2)CC(=O)[C@H](C)/C=C(\C)[C@@H](O)[C@@H](OC)C(=O)[C@H](C)C[C@H](C)/C=C/C=C/C=C/1C	inactive

Task: // return assay outcome for `COc1cc2c(Nc3ccc(Cl)c(Cl)c3F)ncnc2cc1OC[C@@H]1C[C@@H]2CN(C)C[C@@H]2C1`
Result: inactive

Task: Assay outcome for `Cc1cc(Nc2ncc(Cl)c(Nc3ccccc3S(=O)(=O)C(C)C)n2)c(OC(C)C)cc1C1CCNCC1` : what was it?
Result: inactive

Task: What was the test verdict on `CN(C[C@@H]1COCCO1)S(=O)(=O)Nc1ccc2ccc3ncc(-c4cnn(C)c4)cc3c(=O)c2c1` ?
Result: inactive

Task: Tell me the recorded outcome of this test for `COCC(=O)NC/C=C/c1ccc2ncnc(Nc3ccc(Oc4ccc(C)nc4)c(C)c3)c2c1` .
Result: inactive

Task: What did this assay record as the result for `C=CC(=O)N1CCC[C@H](n2c(=O)n(-c3ccc(Oc4ccccc4)cc3)c3c(N)ncnc32)C1` ?
Result: inactive

Task: # outcome recorded in this test, key = CCS(=O)(=O)N1CCN(c2ccc(Nc3ncc(C(N)=O)c(NC4CC4)n3)cc2)CC1 [Cerdulatinib Hydrochloride]
Result: active

Task: What call does the record list for `Cc1cc(C(=O)NOCCO)c(Nc2ccc(I)cc2F)n(C)c1=O` ?
Result: inactive

Task: Any idea what this test logged for `CN1C/C=C/CCOc2cccc(c2)-c2ccnc(n2)Nc2cccc(c2)C1` ?
Result: inactive

Task: Name the outcome recorded for `CNC(=O)c1cc(Oc2ccc(NC(=O)Nc3cc(C(C)(C)C)nn3-c3ccc4ncccc4c3)c(F)c2)ccn1` in the assay.
Result: inactive

Task: Could you check what this test reported for `Cc1cccc(-c2nn3c(c2-c2ccnc4ccc(C(N)=O)cc24)CCC3)n1` ?
Result: inactive

Task: Can you look up the reported call for `Cn1ncc(Cl)c1-c1cc(C(=O)N[C@H](CN)Cc2ccc(F)c(F)c2)oc1Cl` for me?
Result: inactive

meta.source: ChEMBL document CHEMBL3991601
